TEST_METHOD_NOTES: gradient 5% acetonitrile 3 min, to 50% in 2 min, to 85% in 15 min, held 3 min, 100 µL/min
CONDITION_NOTES: column: Zorbax Extend-C18 2.1 x 50 mm; eluents: water / acetonitrile, 0.1% formic acid
// returns -1 unless RP-LC retention time is strictly below 700 s, in which case 1

Use the examples below as a reference point.
# COMPOUND, CATEGORY_LABEL
records = [
    ("COc1ccc(Cl)cc1C(=O)NC1(c2nc(C)no2)CCCCC1", -1),
    ("O=C(Cn1cnc2nc(N3CCC(C(=O)NC4CC4)CC3)sc2c1=O)NC1CCCCC1", 1),
    ("CCOC(=O)C1=C[C@]2(CC)CCCN3CCc4c(n1c1ccccc41)[C@@H]32", -1),
]

Is it true that RP-LC retention time reported for CCOc1ccccc1NC(=O)C1CCN(S(=O)(=O)c2ccc3c(c2)NC(=O)C(C)O3)CC1 (centres undefined) is less than 700 s? -1

How about Cc1nn(-c2ccc(-c3ccccc3)nn2)c(C)c1S(=O)(=O)N1CCOCC1 ? -1

How about CCn1cc(CN2CC(F)(F)C[C@H]2COc2ccncc2)c2ccccc21 ? 1

How about CC(C)n1cnc(S(=O)(=O)N2CCC(C(=O)Nc3ccc(F)cc3)CC2)c1 ? -1

How about CC(C)CC(=O)Nc1ccc(-c2nc(-c3ccccc3)co2)cc1 ? -1

----------
The following compounds are shown together with reported RP-LC retention time values.
TEST_METHOD_NOTES: gradient 5% acetonitrile 3 min, to 50% in 2 min, to 85% in 15 min, held 3 min, 100 µL/min
CONDITION_NOTES: column: Zorbax Extend-C18 2.1 x 50 mm; eluents: water / acetonitrile, 0.1% formic acid
// units = s; emit number, no label

# COMPOUND, PROPERTY_LABEL, MEAS_VALUE
rows = [
    ("Cc1nc(-c2cccc(-c3noc(CNS(=O)(=O)c4ccccc4)n3)c2)cs1", "RP-LC retention time", 977),
    ("CC(NC(=O)C1CCN(c2cncnc2N2CCCCC2)CC1)c1ccc(F)cc1 (centres undefined)", "RP-LC retention time", 715),
    ("Clc1ccc(-c2noc3ncnc(N4CCN(c5ccccn5)CC4)c23)cc1", "RP-LC retention time", 697),
    ("CC(=O)Nc1nnc(SCc2nnc(-c3ccc4c(c3)OCO4)o2)s1", "RP-LC retention time", 678),
    ("CSc1ccccc1NC(=O)C(=O)NCC1CCN(C(=O)Oc2ccccc2)CC1", "RP-LC retention time", 998),
    ("Cc1cc(-c2nnc(-c3ccccc3)o2)c(C)n1CC(=O)N1CCN(C2CCCCC2)CC1", "RP-LC retention time", 666),
]

// lookup RP-LC retention time for CCN(CC)C(=O)c1ccc2c(c1)N(CC(=O)Nc1cc(C)cc(C)c1)C(=O)CS2 858

How about CNC(=O)[C@@H]1C[C@H](Oc2cccnc2)CN1C(=O)C1CCC1 ? 540

How about Cn1cc(CCN2CCC(C(=O)NCc3ccc(Cl)cc3)CC2)c2cccnc21 ? 617

----------
The following compounds are shown together with reported RP-LC retention time values.
TEST_METHOD_NOTES: gradient 5% acetonitrile 3 min, to 50% in 2 min, to 85% in 15 min, held 3 min, 100 µL/min
CONDITION_NOTES: column: Zorbax Extend-C18 2.1 x 50 mm; eluents: water / acetonitrile, 0.1% formic acid
// units = s; emit number, no label

Known RP-LC retention time results, listed for orientation:
# COMPOUND, UNIT_LABEL, RP-LC retention time
measured = [
    ("Cc1cccc(C2(O)C(=O)N(Cc3ccc(C#N)cc3)c3ccccc32)c1 (stereo not given)", "s", 825),
    ("O=C(Nc1ccc(F)cc1F)N1CCN(CCn2c(-c3ccncc3)nc3cccnc32)CC1", "s", 581),
    ("CCOC(=O)c1c(C)[nH]c(C(=O)N2CCC(CC(=O)NCc3ccc(C)cc3)CC2)c1C", "s", 822),
]

// lookup RP-LC retention time for CCCN1C(=O)c2cc(S(=O)(=O)NCCc3cccs3)ccc2Oc2cccnc21 1050

How about CCC(C)c1ccccc1NC(=O)C1CCN(C(=O)C(C)(C)C)CC1 (stereo not given) ? 829

----------
TEST_METHOD_NOTES: gradient 5% acetonitrile 3 min, to 50% in 2 min, to 85% in 15 min, held 3 min, 100 µL/min
CONDITION_NOTES: column: Zorbax Extend-C18 2.1 x 50 mm; eluents: water / acetonitrile, 0.1% formic acid
Our labelling divides records by RP-LC retention time into ranges: class 0 = under 700 s, class 1 = from 700 s up to 900 s, class 2 = 900 s and over

# MOLECULE, CATEGORY_LABEL
records = [
    ("COc1ccc(NC(=O)CSc2cc(N3CCN(c4ccccc4OC)CC3)ncn2)c(OC)c1", "class 1"),
    ("COc1cccc(-c2nc(-c3ccnc(N4CCOCC4)c3)no2)c1", "class 2"),
    ("O=C1c2cc(O)cc(O)c2OC[C@@H]1c1ccc(O)c(O)c1", "class 1"),
    ("c1ccc2c(c1)OCC(c1nc(-c3ccc(-n4cccn4)nc3)no1)O2 (stereo not given)", "class 2"),
    ("COCCNc1c(-c2ccc(F)cc2)nc2sc(C(=O)NCc3ccncc3)c(C)n12", "class 0"),
    ("O=C([C@@H]1C[C@H](F)CN1C(=O)c1ccsc1)N1CCCCC1", "class 0"),
    ("Cc1ncoc1C(=O)NCC1Cn2cccc2C(=O)N1CC(C)C (stereo not given)", "class 0"),
    ("COc1cccc(-c2nc(C3CCN(S(=O)(=O)c4ccc(C)c(F)c4)CC3)no2)c1", "class 2"),
    ("CCNC(=O)c1cc(-c2ccccc2)n(C)c1C", "class 1"),
    ("CC1(C)CC(=O)C2=C(C1)Nc1ccccc1N(CC(=O)NCC1CCCO1)C2c1cccs1 (stereo not given)", "class 1"),
]

Moving on to another molecule below.
Just checking, what class would you give Cc1ccc(-c2noc(Cn3c(=O)n(-c4ccc(Cl)cc4)c(=O)c4sccc43)n2)cc1C here? class 2

----------
TEST_METHOD_NOTES: gradient 5% acetonitrile 3 min, to 50% in 2 min, to 85% in 15 min, held 3 min, 100 µL/min
CONDITION_NOTES: column: Zorbax Extend-C18 2.1 x 50 mm; eluents: water / acetonitrile, 0.1% formic acid
PROPERTY_LABEL: RP-LC retention time (s)
// units = s; emit number, no label

Known RP-LC retention time results, listed for orientation:
# COMPOUND, PROPERTY_LABEL, MEAS_VALUE
data = [
    ("O=C(NCc1ccc2c(c1)OCO2)C1CCCN(c2nn3c(=O)c4c(nc3s2)CCCC4)C1 (centres undefined)", "RP-LC retention time", 719),
    ("CC1(C(=O)NCc2ccc(F)cc2)CCCN(C(=O)Nc2ccc3c(c2)OCCO3)C1 (centres undefined)", "RP-LC retention time", 792),
    ("CC(C)c1ccc(Nc2c(-c3ccc(Cl)cc3)nc3cnccn23)cc1", "RP-LC retention time", 1190),
    ("COc1ccc(CC(=O)N2CCc3cc(-c4csc(C)n4)ccc32)cc1", "RP-LC retention time", 1060),
    ("COc1ccc(-c2ncc3c(n2)CCN(C(=O)Cc2ccc(OC)cc2Cl)C3)cc1", "RP-LC retention time", 987),
]

// lookup RP-LC retention time for Cc1c(Cl)cccc1S(=O)(=O)N1CCN(c2nc3ccncc3n(C)c2=O)CC1 732

How about CCCn1ccc2sc(C)c(C(=O)O)c2c1=O ? 774

How about Cc1cc(C)cc(Nc2nc(C)cc(=O)n2CC(=O)NC(C)CCc2ccccc2)c1 (centres undefined) ? 1030

How about C=C1CC2(OC1=O)c1ccccc1CCc1ccccc12 ? 1140

How about CCNc1cc(C)nc(N2CCN(C(=O)c3ccccc3)CC2)n1 ? 616

----------
The following compounds are shown together with reported RP-LC retention time values.
TEST_METHOD_NOTES: gradient 5% acetonitrile 3 min, to 50% in 2 min, to 85% in 15 min, held 3 min, 100 µL/min
CONDITION_NOTES: column: Zorbax Extend-C18 2.1 x 50 mm; eluents: water / acetonitrile, 0.1% formic acid
// units = s; emit number, no label

# COMPOUND, UNIT_LABEL, MEAS_VALUE
rows = [
    ("O=C(Cn1cccc1-c1nc(-c2ccccc2)no1)Nc1ccc2c(c1)CCC2", "s", 1100),
    ("CCOC(=O)c1cc2n(n1)CC(C)(C(=O)NC1CCCC1)N(Cc1cccc(F)c1)C2=O (centres undefined)", "s", 907),
    ("COc1ccc(C2=NC(c3ccc(Cl)cc3)C(c3ccc(Cl)cc3)N2C(=O)N2CCNC(=O)C2)c(OC(C)C)c1 (centres undefined)", "s", 887),
    ("Cc1ccccc1Cn1c(CN2CCC(C(=O)N3CCCCCC3)CC2)cc2ccccc21", "s", 838),
]

// lookup RP-LC retention time for O=S(=O)(c1cccn2c(SCc3ccccc3Cl)nnc12)N1CCCCC1 927

How about CCCCOc1ccc(C(=O)NCCc2cn3ccc(C)cc3n2)cc1 ? 588

How about Cc1noc(C)c1CN1CCC(NC(=O)Cc2ccc(F)cc2)CC1 ? 582

Just for reference, the METLIN SMRT retention time set (Domingo-Almenara et al. 2019) is where these values come from.
